Recorded values, source patent US7994176B2.

TESTED_TARGET: 11β-HSD1 (Homo sapiens, UniProt P28845)
Construct: hTNFα to induce expression of 11β-HSD1; endogenous in cells
Sequence (P28845 whole entry): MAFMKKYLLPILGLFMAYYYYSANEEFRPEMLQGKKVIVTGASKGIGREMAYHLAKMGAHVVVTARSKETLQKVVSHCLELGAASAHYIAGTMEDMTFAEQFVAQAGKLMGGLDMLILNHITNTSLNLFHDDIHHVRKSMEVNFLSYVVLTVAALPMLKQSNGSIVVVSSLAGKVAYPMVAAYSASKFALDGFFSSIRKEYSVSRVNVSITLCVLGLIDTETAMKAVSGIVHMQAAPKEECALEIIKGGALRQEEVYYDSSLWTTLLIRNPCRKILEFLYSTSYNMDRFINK
PROTOCOL_TEXT: Human aortic smooth muscle cell assay
EXPERIMENTAL_CONDITIONS: primary human AoSMC, hTNFα-induced 11β-HSD1, cortisol formed from cortisone
Method: Human Aortic Smooth Muscle Cell Assay Primary human aortic smooth muscle cells (AoSMC) are cultured in 5% FBS growth medium to a passage number of 6, then pelleted by centrifugation and resuspended at a density of 9×10^4 cells/mL in 0.5% FBS assay medium containing 12 ng/mL hTNFα to induce expression of 11β-HSD1. […] Medium from each well is transferred to a plate for subsequent analysis of cortisol using a competitive fluorescence resonance time resolved immunoassay. […]
QUANTITY_KIND: pIC50
Remember, pIC50 is on a log scale: it is -log10 of the molar concentration.

COMPOUND	TESTED_TARGET	pIC50
O=C(c1ccc(-c2cc(Cl)c(CN3CCC(N4CCCCC4)C3=O)c(Cl)c2)cc1)N1CCC(C(F)(F)F)CC1 (racemic) [Example 16]	11β-HSD1 (Homo sapiens, UniProt P28845)	6.53

From here, focus on the item given below.
pIC50 of O=C(c1ccc(-c2cc(Cl)c(CN3CCC(C4CCCCC4)C3=O)c(Cl)c2)cc1)N1CCN(CCF)CC1 (racemic) [Example 5] on 11β-HSD1 (Homo sapiens, UniProt P28845)?
7.81
